Biological target: T1, Extracellular domain (ECD) of the canine IL-4 receptor alpha-V5 epitope-AviTag-His Tag (canine)
T1 construct: monomeric form isolated by size exclusion; also called canine IL-4RA-V5-Avi-His; canine IL-4RA
T1 chain: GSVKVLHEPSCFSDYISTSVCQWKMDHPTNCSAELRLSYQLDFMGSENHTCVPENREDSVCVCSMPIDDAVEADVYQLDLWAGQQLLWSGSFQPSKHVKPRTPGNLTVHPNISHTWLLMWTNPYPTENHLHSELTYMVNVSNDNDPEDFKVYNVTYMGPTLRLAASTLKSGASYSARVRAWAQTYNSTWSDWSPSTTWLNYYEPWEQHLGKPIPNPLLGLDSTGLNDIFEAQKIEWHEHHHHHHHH
Assay: SPR, Fab-SASA captured on BSA;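 further: biacore T200 SPR, Fab-SASA variants from E. coli conditioned medium captured on BSA-coated CM5 chip, canine IL-4RA injected 120 s then 420 s dissociation, 1:1 model fit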
value-kind: kon (M⁻¹ s⁻¹)
Return type: number; implicit unit M⁻¹ s⁻¹.

Query: Note kon for the binder shown: TB640_005 Fab-SASA VH-L101M (Fab, V domains shown, not shown: SASA tag then His-tag) VH: EVQLVESGGDLVKPGGSLRLSCVASGFTFRDYAMTWVRQAPGKGLQWVSLISGSGGKTYYADAVKGRFTISRDNAKNTLYLQMNSLRAEDTAVYYCAVDRMTKTIRPQYYGLWVWGQGTLVTVSS VL: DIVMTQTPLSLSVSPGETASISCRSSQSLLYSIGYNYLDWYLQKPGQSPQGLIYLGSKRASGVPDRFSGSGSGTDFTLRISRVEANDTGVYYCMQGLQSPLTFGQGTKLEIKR
Response: 92300

Query: Note kon for the binder shown: TB640_005 Fab-SASA VL-T102N (Fab, V domains shown, not shown: SASA tag then His-tag) VH: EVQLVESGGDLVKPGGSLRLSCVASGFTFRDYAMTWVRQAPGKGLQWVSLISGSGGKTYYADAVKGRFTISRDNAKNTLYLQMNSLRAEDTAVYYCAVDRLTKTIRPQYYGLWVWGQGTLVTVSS VL: DIVMTQTPLSLSVSPGETASISCRSSQSLLYSIGYNYLDWYLQKPGQSPQGLIYLGSKRASGVPDRFSGSGSGTDFTLRISRVEANDTGVYYCMQGLQSPLNFGQGTKLEIKR
Response: 80100
